Source: ChEMBL document CHEMBL4610051

Target protein (sequence): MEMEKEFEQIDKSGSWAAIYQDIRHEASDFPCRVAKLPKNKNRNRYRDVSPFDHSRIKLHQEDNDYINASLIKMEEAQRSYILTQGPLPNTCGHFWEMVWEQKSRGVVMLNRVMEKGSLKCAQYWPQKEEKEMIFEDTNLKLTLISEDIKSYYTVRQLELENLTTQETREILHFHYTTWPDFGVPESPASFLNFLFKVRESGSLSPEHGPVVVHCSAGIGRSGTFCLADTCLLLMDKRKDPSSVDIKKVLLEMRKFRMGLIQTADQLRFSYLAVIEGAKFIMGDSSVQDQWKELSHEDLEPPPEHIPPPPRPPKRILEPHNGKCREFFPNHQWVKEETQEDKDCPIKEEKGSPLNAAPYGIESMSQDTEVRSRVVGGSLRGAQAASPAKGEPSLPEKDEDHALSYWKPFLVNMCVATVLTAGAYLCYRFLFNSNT
Test Readout: IC50 (µM)
Write it as a number; the unit µM goes unstated.

Some compounds with known IC50 results, for comparison:
INSERT INTO results (smiles_record, meas_value) VALUES
  ('O=C1Oc2cc(O)c3c(c2[C@@]12c1c(O)cc(O)cc1O[C@H]2c1ccc(O)cc1)O[C@H](c1ccc(O)cc1)[C@@H](O)C3', 4.6),
  ('O=C1Oc2cc(O)c3c(c2[C@]12c1c(O)cc(O)cc1O[C@@H]2c1ccc(O)cc1)O[C@H](c1ccc(O)cc1)[C@H](O)C3', 12.9);

In the following, a different compound is considered.
Request: So what's the measured IC50 for this one? O=C1Oc2cc(O)c3c(c2[C@@]12c1c(O)cc(O)cc1O[C@@H]2c1ccc(O)cc1)O[C@H](c1ccc(O)cc1)[C@H](O)C3
Result: 8.1
